Catalogue of compounds with associated normalized growth
- test.method.notes: chemical genetic growth profiling, strain panel (AID 1159580);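 further: tested at 20 µM; growth read once vehicle control cultures reached saturation at 30 °C; 1 = growth at the plate median or of vehicle wells; lower values mean less growth of the strain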
- assay.setup: S. cerevisiae deletion strains, growth OD, locus YNL250W, strain rad50, stronger effect = lower value
Among all 5,500 compounds or so, about 2,000 (36%) were called active. About 18% were inconclusive and are not listed. The list shows a part of the results.
property.measured: normalized growth

1) C#CCN(C)Cc1ccccc1 = 1.01
2) CC(C)NCC(O)COc1cccc2[nH]ccc12 (centres undefined) = 0.986
3) C[C@@H]1CC(Cl)CC[C@H]1C(=O)OC(C)(C)C (some centres undefined) = 0.987
4) c1ccc2c(c1)sc1ccccc12 = 0.974

---

Catalogue of compounds with associated normalized growth
- test.method.notes: chemical genetic growth profiling, strain panel (AID 1159580);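 further: tested at 20 µM; growth read once vehicle control cultures reached saturation at 30 °C; 1 = growth at the plate median or of vehicle wells; lower values mean less growth of the strain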
- assay.setup: S. cerevisiae deletion strains, growth OD, locus YPL051W, strain arl3, stronger effect = lower value
About 2,000 (36%) of roughly 5,500 compounds were called active. About 18% were inconclusive and are not listed. The list shows a part of the results.
property.measured: normalized growth

1. C[C@H]1COc2c(N3CCN(C)CC3)c(F)cc3c(=O)c(C(=O)O)cn1c23 = 1.03
2. CC(C)NCC(O)COc1cccc2[nH]ccc12 (stereo not given) = 0.996
3. O=C(O[C@@H]1Cc2c(O)cc(O)cc2O[C@@H]1c1ccc(O)c(O)c1)c1cc(O)c(O)c(O)c1 = 0.776
4. C=CCCCCCCCCCCCc1ccco1 = 0.754
5. CC[C@@]1(O)C[C@H](O[C@H]2C[C@H](N(C)C)[C@H](O)[C@H](C)O2)c2c(cc3c(c2O)C(=O)c2c(O)ccc(O)c2C3=O)[C@H]1C(=O)OC = 0.756
6. Oc1cc(O)c2c(c1)O[C@H](c1cc(O)c(O)c(O)c1)[C@H](O)C2 = 1
7. CCCCCCCCCCCCCc1ccco1 = 0.964
8. CC#CC1(O)CCC2C3CCC4=CC(=O)CCC4=C3C(c3ccc(N(C)C)cc3)CC21C (stereo not given) = 0.988
9. O=C(Oc1cc(OC(=O)c2ccccc2)c2c(c1)O[C@H](c1ccc(OC(=O)c3ccccc3)c(OC(=O)c3ccccc3)c1)[C@@H](OC(=O)c1ccccc1)C2)c1ccccc1 = 1
10. COc1cc([C@@H]2c3cc4c(cc3C(OC3O[C@@H]5COC(C)O[C@H]5[C@H](O)[C@H]3O)C3COC(=O)[C@@H]32)OCO4)cc(OC)c1O (stereo not given in full) = 1.04
11. NS(=O)(=O)c1cc2c(cc1Cl)NC=NS2(=O)=O = 1
12. C[C@@H]1CC(Cl)CC[C@H]1C(=O)OC(C)(C)C (stereo not given in full) = 1
13. OCCc1ccccc1 = 0.995
14. CC1COc2c(N3CCN(C)CC3)c(F)cc3c(=O)c(C(=O)O)cn1c23 (stereo not given) = 0.98
15. CC(=O)Oc1cc(OC(C)=O)c2c(c1)O[C@H](c1ccc(OC(C)=O)c(OC(C)=O)c1)[C@@H](OC(C)=O)C2 = 1.01
16. CN(C)CCOC(c1ccc(Cl)cc1)c1ccccn1 (stereo not given) = 1.03
17. O=c1cccc2ccc(O)c(O)c2c1O = 0.672
18. COC(=O)C[C@H]1C2(C)CC34OC5(C)O[C@@]6([C@H](OC(C)=O)C(OC(C)=O)[C@]7(C)C(/C(=C(/O)C(C)C)C(=O)O[C@H]7c7ccoc7)[C@@]6(O5)[C@H](OC(C)=O)[C@@]3(O)C2OC(=O)C(C)C)[C@]14C (stereo not given in full) = 0.999
19. Cc1ccccc1C(OCCN(C)C)c1ccccc1 (stereo not given) = 0.994
20. C=CC[C@]1(O)CCC2C3CCC4=CC(=O)CCC4=C3C=C[C@@]21C (stereo not given in full) = 0.988
21. COc1ccc(C(=O)CC(=O)O)c2c1C=CC(C)(C)O2 = 1.01
22. O=C(NC(=O)c1ccccc1Cl)Nc1ccc(OC(F)(F)F)cc1 = 1.07
23. O=C(O)/C=C/c1ccc(O)c(O)c1 = 0.994
24. CCC(C)C(=O)O[C@@H]1C[C@@]2(C)[C@H](c3ccoc3)OC(=O)CC23OC2(C)O[C@]14[C@]1(C)[C@@H](CC(=O)OC)C5(C)CC1(O)[C@](O)(C5OC(=O)C1(C)OC1C)[C@@H](OC(C)=O)[C@]34O2 (stereo not given in full) = 1.01
25. COc1cc2nc(N(C)CCCNC(=O)C3CCCO3)nc(N)c2cc1OC (stereo not given) = 0.997
26. CO/N=C1/CN(c2nc3c(cc2F)c(=O)c(C(=O)O)cn3C2CC2)CC1CN (stereo not given) = 1
27. C#CCCCCCCCCCCCc1ccco1 = 0.988
28. COc1ccc(CN(CCN(C)C)c2ccccn2)cc1 = 1.04
29. CC[C@@H](C(=O)C(C)[C@@H](O)[C@H](C)CCc1ccc(C)c(O)c1C(=O)O)C1OC(CC)(C2CC[C@](O)(CC)[C@H](C)O2)C[C@@H]1C (stereo not given in full) = 0.944
30. COc1c(N2CCNC(C)C2)c(F)cc2c(=O)c(C(=O)O)cn(C3CC3)c12 (stereo not given) = 0.975
31. CN(C)CCN(Cc1ccccc1)c1ccccn1 = 1.02
32. O=C(/C=C/c1ccc(O)c(O)c1)OCCc1ccccc1 = 0.652
33. c1ccc2c(c1)CCCC2C1=NCCN1 (stereo not given) = 1.03
34. C=C[C@@](C)(O)CCC1C(=C)C[C@H](O)C2C(C)(C)CCCC12C (stereo not given in full) = 0.975
35. CN(C)CCCC1(c2ccc(F)cc2)OCc2cc(C#N)ccc21 (stereo not given) = 0.997
